- Experimental system: T1, soluble human FcRn (human, UniProt P55899 24-297; P61769 21-119, biotinylated (Sulfo-NHS-LC-Biotin) in the ELISA; amine-coupled to CM5 chip in SPR)
- T1 construct: also called shFcRn; biotinylated shFcRn
- T1 sequence (P55899 24-297 limits assumed, chain 1 of 2): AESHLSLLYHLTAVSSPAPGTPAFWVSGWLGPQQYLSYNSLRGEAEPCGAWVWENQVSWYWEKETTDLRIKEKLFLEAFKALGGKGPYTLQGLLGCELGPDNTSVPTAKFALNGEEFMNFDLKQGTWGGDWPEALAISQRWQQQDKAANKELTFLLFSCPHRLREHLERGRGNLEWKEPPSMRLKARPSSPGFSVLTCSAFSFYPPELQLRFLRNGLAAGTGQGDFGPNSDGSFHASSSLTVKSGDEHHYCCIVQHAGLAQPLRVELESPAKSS
- T1 sequence (P61769 21-119 limits assumed, chain 2 of 2): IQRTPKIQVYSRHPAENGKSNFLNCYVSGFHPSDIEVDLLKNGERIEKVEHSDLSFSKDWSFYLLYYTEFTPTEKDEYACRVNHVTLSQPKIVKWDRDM
- Assay overview: SPR, pH 6
Value type: Kd (nM)

>>> measured_result("QRFXTGHFGGLYPCNGP (Pen (L-penicillamine) at 4; disulfide; C-terminal amide) [Peptide No. 32]")
250
